Where do the numbers come from? From patent US6861260B2.

- assay-method-text: Artificial lipid membrane permeability measurement (96-well filter plate, absorbance)
- Type: in vitro ADME
- Design: unit: cm/s
- condition-label: membrane of Comparative Example 1 (phosphatidylcholine, cholesterol and 1,9-decadiene 2:1:97); pH 6.5; 0.5 mmol/L sample
reported-metric: Permeability coefficient (P), Comparative Example 1

| compound | value-measured |
| --- | --- |
| CO/N=C(\C(=O)N[C@@H]1C(=O)N2C(C(=O)O)=C(COC(N)=O)CS[C@H]12)c1ccco1 | 2.76E-08 |
| N=C(N)N/N=C/c1c(Cl)cccc1Cl | 4.14E-06 |

Please find the next compound below.
Please indicate Permeability coefficient (P), Comparative Example 1 recorded for `CC(C)(C)NC[C@H](O)COc1nsnc1N1CCOCC1`
1.05E-06

----------
Listed below: Papp at 0.5 mmol/L values for each entry.
- assay-method-text: Artificial lipid membrane permeability measurement (96-well filter plate, absorbance)
- Type: in vitro ADME
- condition-label: PAMPA, membrane of Example 5 (phosphatidylcholine and 1,8-nonadiene 2:98); buffer pH 6.5 to pH 7.0; 0.5 mmol/L sample; read-out: Permeability coefficient (P), Example 5
Don't forget the unit after the number, please.

Answered cases to consult:
| molecule | Papp at 0.5 mmol/L |
| --- | --- |
| NS(=O)(=O)c1cc2c(cc1Cl)NCNS2(=O)=O [Hydrochlorothiazide] | 1.82 ×10⁻⁶ cm/s |
| CC(C)NCC(O)COc1cccc2ccccc12 (stereo not drawn) | 24.6 ×10⁻⁶ cm/s |

Please indicate Papp at 0.5 mmol/L recorded for CC(C(=O)O)c1cccc(C(=O)c2ccccc2)c1 (stereo not drawn)
16.8 ×10⁻⁶ cm/s

----------
- assay-method-text: Artificial lipid membrane permeability measurement (96-well filter plate, absorbance)
- Assay type: in vitro ADME
- condition-label: PAMPA; membrane of Example 1 (phosphatidylcholine 2, cholesterol 1, stearic acid 0.2 %, w/w in 1,7-octadiene); pH 7.0; 0.5 mmol/L sample; read-out: Permeability coefficient (P), Example 1
reported-metric: Papp at 0.5 mmol/L (×10⁻⁶ cm/s)
Numbers only here, please. The scale is ×10⁻⁶ cm/s.

Answered cases to consult:
| compound | unit-text | value-measured |
| --- | --- | --- |
| CC(C)(C)NC[C@H](O)COc1nsnc1N1CCOCC1 | ×10⁻⁶ cm/s | 9.13 |
| CNC(=C[N+](=O)[O-])NCCSCc1ccc(CN(C)C)o1 | ×10⁻⁶ cm/s | 1.22 |
| CC(C)(C)NCC(O)COc1cccc2c1CC(O)C(O)C2 (centres unmarked) | ×10⁻⁶ cm/s | 3.28 |
| NS(=O)(=O)c1cc2c(cc1Cl)NCNS2(=O)=O [Hydrochlorothiazide] | ×10⁻⁶ cm/s | 1.34 |
| CO/N=C(\C(=O)N[C@@H]1C(=O)N2C(C(=O)O)=C(CSc3nc(=O)c(=O)[nH]n3C)CS[C@H]12)c1csc(N)n1 | ×10⁻⁶ cm/s | 1.37 |

Please indicate Papp at 0.5 mmol/L recorded for CC(C)NCC(O)COc1cccc2[nH]ccc12 (centres unmarked)
11

Please indicate Papp at 0.5 mmol/L recorded for N=C(N)NC(=O)c1nc(Cl)c(N)nc1N [Amiloride]
2.69

Please indicate Papp at 0.5 mmol/L recorded for `CN(C)[C@@H]1C(O)=C(C(N)=O)C(=O)[C@@]2(O)C(O)=C3C(=O)c4c(O)cccc4[C@@](C)(O)[C@H]3[C@H](O)[C@@H]12`
3.31

Please indicate Papp at 0.5 mmol/L recorded for CCCC(=O)Nc1ccc(OCC(O)CNC(C)C)c(C(C)=O)c1 (centres unmarked)
4.45

Please indicate Papp at 0.5 mmol/L recorded for `O=C(O)c1cc(/N=N/c2ccc(S(=O)(=O)Nc3ccccn3)cc2)ccc1O`
3.24

Please indicate Papp at 0.5 mmol/L recorded for `CC(=O)Nc1ccc(O)cc1`
8.17

----------
Listed below: Permeability coefficient (P), Comparative Example 1 values for each entry.
- assay-method-text: Artificial lipid membrane permeability measurement (96-well filter plate, absorbance)
- Assay type: in vitro ADME
- Set-up: unit: cm/s
- condition-label: membrane of Comparative Example 1 (phosphatidylcholine, cholesterol and 1,9-decadiene 2:1:97); pH 6.5; 0.5 mmol/L sample
Answer with the value's number alone.

Answered cases to consult:
| compound | value-measured |
| --- | --- |
| COCCc1ccc(OCC(O)CNC(C)C)cc1 (stereo not shown) [Metoprolol] | 7.49E-07 |
| O=C1CC[C@@]2(O)[C@H]3Cc4ccc(O)c5c4[C@@]2(CCN3CC2CC2)[C@H]1O5 [Naltrexone] | 9.61E-06 |
| CCCC(=O)Nc1ccc(OCC(O)CNC(C)C)c(C(C)=O)c1 (stereo not shown) [Acebutolol] | 1.91E-07 |

Please indicate Permeability coefficient (P), Comparative Example 1 recorded for CO/N=C(\C(=O)N[C@@H]1C(=O)N2C(C(=O)O)=C(CSc3nc(=O)c(=O)[nH]n3C)CS[C@H]12)c1csc(N)n1 [Ceftriaxone]
1.66E-08

Please indicate Permeability coefficient (P), Comparative Example 1 recorded for C[C@H]1c2cccc(O)c2C(=O)C2=C(O)[C@]3(O)C(=O)C(C(N)=O)=C(O)[C@@H](N(C)C)[C@@H]3[C@@H](O)[C@@H]21 [Doxycycline]
1.52E-06

Please indicate Permeability coefficient (P), Comparative Example 1 recorded for CCOC(=O)[C@H](CCc1ccccc1)N[C@@H](C)C(=O)N1CCC[C@H]1C(=O)O [Enalapril]
1.09E-06

Please indicate Permeability coefficient (P), Comparative Example 1 recorded for CC[C@H](C)C(=O)O[C@H]1C[C@H](O)C=C2C=C[C@H](C)[C@H](CC[C@@H](O)C[C@@H](O)CC(=O)O)[C@H]21 [Pravastatin]
7.21E-08

Please indicate Permeability coefficient (P), Comparative Example 1 recorded for CN(C)[C@@H]1C(O)=C(C(N)=O)C(=O)[C@@]2(O)C(O)=C3C(=O)c4c(O)cccc4[C@@](C)(O)[C@H]3[C@H](O)[C@@H]12 [Oxytetracycline]
8.31E-07

Please indicate Permeability coefficient (P), Comparative Example 1 recorded for CC(C)(C)NCC(O)COc1cccc2c1CC(O)C(O)C2 (stereo not shown) [Nadolol]
5.26E-07

Please indicate Permeability coefficient (P), Comparative Example 1 recorded for NS(=O)(=O)c1cc2c(cc1Cl)NCNS2(=O)=O [Hydrochlorothiazide]
8.64E-07

Please indicate Permeability coefficient (P), Comparative Example 1 recorded for CC(=O)Nc1ccc(OCC(O)CNC(C)C)cc1 (stereo not shown) [Practolol]
4.36E-07

Please indicate Permeability coefficient (P), Comparative Example 1 recorded for O=C(O)c1cc(/N=N/c2ccc(S(=O)(=O)Nc3ccccn3)cc2)ccc1O [Sulfasalazine]
3.12E-07

Please indicate Permeability coefficient (P), Comparative Example 1 recorded for NS(=O)(=O)c1cc2c(cc1Cl)N=CNS2(=O)=O [Chlorothiazide]
4.98E-08

Please indicate Permeability coefficient (P), Comparative Example 1 recorded for CC(=O)Nc1ccc(O)cc1 [Acetaminophen]
4.98E-08

Please indicate Permeability coefficient (P), Comparative Example 1 recorded for Nc1ccn([C@@H]2O[C@H](CO)[C@@H](O)[C@@H]2O)c(=O)n1 [Cytarabine]
3.87E-08

Please indicate Permeability coefficient (P), Comparative Example 1 recorded for N=C(N)NC(=O)c1nc(Cl)c(N)nc1N [Amiloride]
6.10E-08

Please indicate Permeability coefficient (P), Comparative Example 1 recorded for CNC(=C[N+](=O)[O-])NCCSCc1ccc(CN(C)C)o1 [Ranitidine]
1.34E-07

Please indicate Permeability coefficient (P), Comparative Example 1 recorded for CC(C)NCC(O)COc1cccc2[nH]ccc12 (stereo not shown) [Pindolol]
2.71E-08

Please indicate Permeability coefficient (P), Comparative Example 1 recorded for CCN1CCCC1CNC(=O)c1cc(S(N)(=O)=O)ccc1OC (stereo not shown) [Sulpiride]
8.33E-08
